experiment: Drug recovery in Sprague-Dawley rat feces at 0.3 mg/kg, po administered via gavage measured after 64 hrs by LC-MS/MS analysis; type: ADME, organism-based; conditions: faeces, read-out: Drug recovery
Metric: dose excreted at 64 h (%)
Kindly answer with a numeric value in %, unit omitted.

Task: For CN1Cc2c(Cl)cc(Cl)cc2[C@H](c2cccc(S(=O)(=O)NCCOCCOCCNC(=O)COCC(=O)NCCOCCOCCNS(=O)(=O)c3cccc([C@@H]4CN(C)Cc5c(Cl)cc(Cl)cc54)c3)c2)C1 , what is its reported dose excreted at 64 h?
Output: 117

###

assay: Cmax in Sprague-Dawley rat at […], po administered via gavage by LC-MS/MS analysis; type: ADME, organism-based; design: dose 7.2 mg/kg, route po; conditions: in vivo
Metric: Cmax

Task: GET /values?readout=Cmax&item= CN1Cc2c(Cl)cc(Cl)cc2C(c2cccc(S(=O)(=O)NCCOCCOCCOCCNC(=O)c3ccc(C(=O)NCCOCCOCCOCCNS(=O)(=O)c4cccc(C5CN(C)Cc6c(Cl)cc(Cl)cc65)c4)cc3)c2)C1 (racemic)
Output: < 4 ng/mL

###

Assignment: determine reported dose excreted at 72 h for the given molecules.
assay: Drug recovery in Sprague-Dawley rat feces at 0.1 mg/kg, po administered via gavage measured after 72 hrs by LC-MS/MS analysis; assay type: ADME, organism-based; details: faeces, read-out: Drug recovery
Quick reminder: number only, in %, skip the unit.

Task: What value of measured dose excreted at 72 h is listed for CN1Cc2c(Cl)cc(Cl)cc2[C@H](c2cccc(S(=O)(=O)NCCOCCOCCNC(=O)CCC(=O)NCCOCCOCCNS(=O)(=O)c3cccc([C@@H]4CN(C)Cc5c(Cl)cc(Cl)cc54)c3)c2)C1 ?
Output: 46

Task: Next molecule: CN1Cc2c(Cl)cc(Cl)cc2[C@H](c2cccc(S(=O)(=O)NCCOCCOCCNC(=O)NCCCCNC(=O)NCCOCCOCCNS(=O)(=O)c3cccc([C@@H]4CN(C)Cc5c(Cl)cc(Cl)cc54)c3)c2)C1 [TENAPANOR]
Output: 92

Task: Next: CN1Cc2c(Cl)cc(Cl)cc2[C@H](c2cccc(S(=O)(=O)NCCOCCOCCNC(=O)Nc3ccc(NC(=O)NCCOCCOCCNS(=O)(=O)c4cccc([C@@H]5CN(C)Cc6c(Cl)cc(Cl)cc65)c4)cc3)c2)C1
Output: 93

###

Target: Sodium/hydrogen exchanger 3 (Homo sapiens, UniProt P48764)
Sequence (P48764 whole entry): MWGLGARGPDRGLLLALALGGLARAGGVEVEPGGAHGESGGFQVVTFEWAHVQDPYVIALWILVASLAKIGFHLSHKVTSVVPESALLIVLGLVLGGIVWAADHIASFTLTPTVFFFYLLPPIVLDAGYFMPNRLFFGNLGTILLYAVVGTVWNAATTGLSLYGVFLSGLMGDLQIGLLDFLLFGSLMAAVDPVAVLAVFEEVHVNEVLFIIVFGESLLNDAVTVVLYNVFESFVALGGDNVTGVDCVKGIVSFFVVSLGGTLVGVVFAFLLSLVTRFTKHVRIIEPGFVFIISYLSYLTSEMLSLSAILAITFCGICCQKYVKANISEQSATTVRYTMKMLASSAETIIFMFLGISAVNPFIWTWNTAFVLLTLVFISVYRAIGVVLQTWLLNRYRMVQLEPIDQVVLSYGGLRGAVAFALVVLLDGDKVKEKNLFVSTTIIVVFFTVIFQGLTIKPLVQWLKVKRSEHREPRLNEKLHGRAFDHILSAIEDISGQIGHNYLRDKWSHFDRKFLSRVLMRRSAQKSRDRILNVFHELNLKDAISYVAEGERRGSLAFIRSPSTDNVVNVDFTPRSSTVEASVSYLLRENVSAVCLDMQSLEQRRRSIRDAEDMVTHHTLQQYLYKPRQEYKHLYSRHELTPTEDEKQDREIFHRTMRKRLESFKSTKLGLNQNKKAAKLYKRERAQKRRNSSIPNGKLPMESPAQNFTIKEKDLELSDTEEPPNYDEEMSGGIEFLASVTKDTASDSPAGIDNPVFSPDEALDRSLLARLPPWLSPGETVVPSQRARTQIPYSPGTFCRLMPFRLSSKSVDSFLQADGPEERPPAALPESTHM
Experiment: Inhibition of human NHE3 expressed in opossum kidney cells assessed as reduction in Na-HEPES buffer-mediated pH recovery in presence of NEH1 inhibitor ethyl isopropyl amiloride by BCECF-AM dye based fluorescence assay
Consider the following molecules; for each one, report its IC50.
# value in nM; strip the unit string

Task: Which IC50 value is on record for CN1Cc2c(Cl)cc(Cl)cc2[C@H](c2cccc(S(=O)(=O)NCCOCCOCCNC(=O)NCCCCNC(=O)NCCOCCOCCNS(=O)(=O)c3cccc([C@@H]4CN(C)Cc5c(Cl)cc(Cl)cc54)c3)c2)C1 ?
Output: 0.501

Task: Also, CN1Cc2c(Cl)cc(Cl)cc2C(c2ccc(S(=O)(=O)NCCOCCOCCOCCNC(=O)c3ccc(C(=O)NCCOCCOCCOCCNS(=O)(=O)c4ccc(C5CN(C)Cc6c(Cl)cc(Cl)cc65)cc4)cc3)cc2)C1 (racemic) please.
Output: 39.8

Task: Further, for CN1Cc2c(Cl)cc(Cl)cc2C(c2cccc(S(N)(=O)=O)c2)C1 (racemic) ?
Output: 631

Task: Consider next the molecule CN1Cc2c(Cl)cc(Cl)cc2[C@H](c2cccc(NC(=O)[C@H](O)[C@@H](O)[C@H](O)[C@H](O)CO)c2)C1 in the same way.
Output: 25.1

Task: Continue with CN1Cc2c(Cl)cc(Cl)cc2[C@H](c2cccc(S(=O)(=O)NCCOCCOCCNC(=O)Nc3ccc(NC(=O)NCCOCCOCCNS(=O)(=O)c4cccc([C@@H]5CN(C)Cc6c(Cl)cc(Cl)cc65)c4)cc3)c2)C1
Output: 1.58

Task: // same read-out, input: CN1Cc2c(Cl)cc(Cl)cc2[C@@H](c2cccc(NC(=O)[C@H](O)[C@@H](O)[C@H](O)[C@H](O)CO)c2)C1
Output: 2510

Task: What do you have for CN1Cc2c(Cl)cc(Cl)cc2C(c2cccc(S(=O)(=O)NCCOCCOCCNC(=O)NCCOCCOCCNS(=O)(=O)c3cccc(C4CN(C)Cc5c(Cl)cc(Cl)cc54)c3)c2)C1 (centres undefined) ?
Output: 2000

Task: // repeat for CN1Cc2c(Cl)cc(Cl)cc2C(c2cccc(S(=O)(=O)NCCCP(=O)(O)O)c2)C1 (racemic) and report
Output: 5010

Task: Same read-out for CN1Cc2c(Cl)cc(Cl)cc2C(c2cccc(S(=O)(=O)NCCCS(=O)(=O)O)c2)C1 (racemic) ?
Output: 1580

Task: CN1Cc2c(Cl)cc(Cl)cc2C(c2cccc(NC(=O)[C@H](O)[C@@H](O)[C@H](O)[C@H](O)CO)c2)C1 (mixture of isomers) ?
Output: 50.1

Task: How about this molecule: CN1Cc2c(Cl)cc(Cl)cc2C(c2cccc(S(=O)(=O)NCCOCCOCCNS(=O)(=O)c3cccc(C4CN(C)Cc5c(Cl)cc(Cl)cc54)c3)c2)C1 (racemic)
Output: 5010

Task: Next up: CN1Cc2c(Cl)cc(Cl)cc2C(c2cccc(S(=O)(=O)NCCOCCOCCOCCNC(=O)NCCOCCOCCOCCNS(=O)(=O)c3cccc(C4CN(C)Cc5c(Cl)cc(Cl)cc54)c3)c2)C1 (racemic)
Output: 200

Task: CN1Cc2c(Cl)cc(Cl)cc2C(c2cccc(S(=O)(=O)NCC(=O)O)c2)C1 (racemic) ?
Output: 100

Task: Can you handle CN1Cc2c(Cl)cc(Cl)cc2C(c2cccc(S(=O)(=O)NCCOCCOCCOCCNC(=O)c3ccc(C(=O)NCCOCCOCCOCCNS(=O)(=O)c4cccc(C5CN(C)Cc6c(Cl)cc(Cl)cc65)c4)cc3)c2)C1 (racemic) next?
Output: 50.1

###

experiment: Cmax in Sprague-Dawley rat at 30 mg/kg, po administered via gavage by LC-MS/MS analysis; assay type: ADME, organism-based; design: dose 30 mg/kg, route po; details: Sprague-Dawley, in vivo, read-out: Cmax
Metric: Cmax

Task: Quick one: Cmax of CN1Cc2c(Cl)cc(Cl)cc2[C@H](c2cccc(S(=O)(=O)NCCOCCOCCNC(=O)COCC(=O)NCCOCCOCCNS(=O)(=O)c3cccc([C@@H]4CN(C)Cc5c(Cl)cc(Cl)cc54)c3)c2)C1 ?
Output: < 2 ng/mL

Task: // same read-out, input: CN1Cc2c(Cl)cc(Cl)cc2[C@H](c2cccc(S(=O)(=O)NCCOCCOCCNC(=O)CCC(=O)NCCOCCOCCNS(=O)(=O)c3cccc([C@@H]4CN(C)Cc5c(Cl)cc(Cl)cc54)c3)c2)C1
Output: < 2 ng/mL

Task: Continue with CN1Cc2c(Cl)cc(Cl)cc2[C@H](c2cccc(S(=O)(=O)NCCOCCOCCOCCNC(=O)NCCOCCOCCOCCNS(=O)(=O)c3cccc([C@@H]4CN(C)Cc5c(Cl)cc(Cl)cc54)c3)c2)C1
Output: < 5 ng/mL

Task: What do you have for CN1Cc2c(Cl)cc(Cl)cc2[C@H](c2cccc(S(=O)(=O)NCCOCCOCCOCCNC(=O)NCCCNC(=O)NCCOCCOCCOCCNS(=O)(=O)c3cccc([C@@H]4CN(C)Cc5c(Cl)cc(Cl)cc54)c3)c2)C1 ?
Output: < 15 ng/mL
